- Measurement Target: ZmPEPC-C4 (Zea mays)
- Sequence (Q84KR7 1-970): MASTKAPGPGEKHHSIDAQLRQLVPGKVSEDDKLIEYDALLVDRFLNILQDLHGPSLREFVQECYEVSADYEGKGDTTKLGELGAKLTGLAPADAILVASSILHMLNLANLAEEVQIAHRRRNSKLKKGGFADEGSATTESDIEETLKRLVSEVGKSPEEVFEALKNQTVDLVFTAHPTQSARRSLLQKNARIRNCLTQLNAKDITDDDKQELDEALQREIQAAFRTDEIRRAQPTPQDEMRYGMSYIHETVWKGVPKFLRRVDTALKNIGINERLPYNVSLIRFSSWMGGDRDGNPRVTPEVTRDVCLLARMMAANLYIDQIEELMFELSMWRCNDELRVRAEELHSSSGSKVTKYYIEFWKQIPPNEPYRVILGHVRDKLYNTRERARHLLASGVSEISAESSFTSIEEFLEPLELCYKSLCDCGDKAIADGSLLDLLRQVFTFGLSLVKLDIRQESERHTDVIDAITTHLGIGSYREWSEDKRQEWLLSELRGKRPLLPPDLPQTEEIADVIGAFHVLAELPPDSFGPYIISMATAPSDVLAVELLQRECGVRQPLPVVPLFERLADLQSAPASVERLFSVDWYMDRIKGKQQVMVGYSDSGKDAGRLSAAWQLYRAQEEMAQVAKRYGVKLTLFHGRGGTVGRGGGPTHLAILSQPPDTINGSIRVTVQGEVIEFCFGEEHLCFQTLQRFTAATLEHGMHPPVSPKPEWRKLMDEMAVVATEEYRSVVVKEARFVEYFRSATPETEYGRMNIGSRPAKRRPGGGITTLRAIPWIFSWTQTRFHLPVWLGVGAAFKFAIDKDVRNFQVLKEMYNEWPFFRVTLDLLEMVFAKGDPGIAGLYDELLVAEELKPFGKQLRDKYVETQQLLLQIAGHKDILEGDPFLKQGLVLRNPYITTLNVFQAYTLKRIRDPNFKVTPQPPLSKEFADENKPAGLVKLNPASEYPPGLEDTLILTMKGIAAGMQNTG
- Experiment Summary: quenching of ANS-enzyme fluorescence at […] nm, Hill-type fit
- Format: binding
Test Readout: Kd (µM)
Numbers only, in µM.

**Q:** What value of measured Kd is listed for O=C(O)C[C@H](O)C(=O)O [malate] ?
**A:** 360

---

- Measurement Target: ZmPEPC-C4 (Zea mays)
- Experiment Summary: ANS fluorescence titration, emission […] nm
- Format: binding
Test Readout: pKd
One number for each entry, as −log10 of the molar value.

**Q:** What value of measured pKd is listed for O=S(=O)(O)c1cccc2cccc(Nc3ccccc3)c12 ?
**A:** 4.84
